I'd be grateful if you could share measured Papp for these entries.
System: Intestine
Assay: Apparent permeability across rat small intestine
Assay type: ADME, tissue-based
*1 amine or outer side, *2 acyl side, *3 side chain or, on linkers, in order; H or OH if unused. Where a SMILES comes first, the peptide text is derived from it. Bridges are numbered along the chain shown (N, C = ends). [ ]: non-standard residue; d: D form. Phe(Nα-(CH2)3CO) = O=C([C@H](Cc1ccccc1)N(CCCC(=O)[*:3])[*:1])[*:2]; Phe(Nα-CH2CH2CO) = O=C([C@H](Cc1ccccc1)N(CCC(=O)[*:3])[*:1])[*:2]; N(2-aminoethyl)Phe = O=C([C@H](Cc1ccccc1)N(CCN[*:3])[*:1])[*:2]; Sar = CNCC(=O)O
Write the value in ×10⁻⁶ cm/s as a bare number.

[Q] Let me know recorded Papp for NC(=O)[C@H](Cc1ccccc1)N1CCNC(=O)CCCN[C@@H](Cc2ccccc2)C(=O)NCC(=O)NCC(=O)NCC(=O)NCC1=O (H-[Phe(Nα-(CH2)3CO)]GGGG[N(2-aminoethyl)Phe]-NH2; lactam 1-6) , thanks.
[A] 4.2

[Q] Let me know recorded Papp for CN1CC(=O)NCC(=O)NCC(=O)N([C@@H](Cc2ccccc2)C(N)=O)CCNC(=O)CCN[C@@H](Cc2ccccc2)C(=O)N(C)CC1=O (H-[Phe(Nα-CH2CH2CO)][Sar][Sar]GG[N(2-aminoethyl)Phe]-NH2; lactam 1-6) , thanks.
[A] 3.94

[Q] Let me know recorded Papp for C[C@@H]1NC(=O)[C@H](C)NC(=O)[C@H](Cc2ccccc2)NCCC(=O)NCCN([C@@H](Cc2ccccc2)C(N)=O)C(=O)[C@H](C)NC(=O)[C@H](C)NC1=O (H-[Phe(Nα-CH2CH2CO)]AAAA[N(2-aminoethyl)Phe]-NH2; lactam 1-6) , thanks.
[A] 5.63

[Q] Let me know recorded Papp for C[C@@H]1NC(=O)[C@H](Cc2ccccc2)NCCC(=O)NCCN([C@@H](Cc2ccccc2)C(N)=O)C(=O)CNC(=O)CNC(=O)CNC1=O (H-[Phe(Nα-CH2CH2CO)]AGGG[N(2-aminoethyl)Phe]-NH2; lactam 1-6) , thanks.
[A] 3.89

[Q] Let me know recorded Papp for "OC[C@@H](O)[C@@H](O)[C@H](O)[C@H](O)CO" , thanks.
[A] 5

---

I'd be grateful if you could share measured Papp for these entries.
Test: Apparent permeability across Caco-2 cells
Format: ADME, cell-based
Conditions: human
*1 amine or outer side, *2 acyl side, *3 side chain or, on linkers, in order; H or OH if unused. Where a SMILES comes first, the peptide text is derived from it. Bridges are numbered along the chain shown (N, C = ends). [ ]: non-standard residue; d: D form. Phe(Nα-CH2CH2CO) = O=C([C@H](Cc1ccccc1)N(CCC(=O)[*:3])[*:1])[*:2]; N(2-aminoethyl)Phe = O=C([C@H](Cc1ccccc1)N(CCN[*:3])[*:1])[*:2]; Sar = CNCC(=O)O
Write the value in ×10⁻⁶ cm/s as a bare number.

[Q] Let me know recorded Papp for C[C@@H]1NC(=O)[C@H](C)NC(=O)[C@H](Cc2ccccc2)NCCC(=O)NCCN([C@@H](Cc2ccccc2)C(N)=O)C(=O)CNC(=O)CNC1=O (H-[Phe(Nα-CH2CH2CO)]AAGG[N(2-aminoethyl)Phe]-NH2; lactam 1-6) , thanks.
[A] 3.22

[Q] Let me know recorded Papp for CN1CC(=O)NCC(=O)NCC(=O)NCC(=O)N([C@@H](Cc2ccccc2)C(N)=O)CCNC(=O)CCN[C@@H](Cc2ccccc2)C1=O (H-[Phe(Nα-CH2CH2CO)][Sar]GGG[N(2-aminoethyl)Phe]-NH2; lactam 1-6) , thanks.
[A] 2.22
